# Organism: Bos taurus
# procedureDetails: Absorption spectral changes upon addition of 200 uM calf thymus DNA to drug solution at 20 uM in 1 mM Na cacodylate buffer at pH 7.0
# Format: functional
Bathochromic shift listing for selected molecules.
quantityName: Bathochromic shift (nm)

compoundstring=Cc1cc2n(c(=O)c1C(N)=O)Cc1cc3ccc(OCCN4CCCCC4)cc3nc1-2 valuemeasured=8
compoundstring=Cc1cc2n(c(=O)c1CN)Cc1cc3cc(OCCN4CCCCC4)ccc3nc1-2 valuemeasured=9
compoundstring=Cc1cc2n(c(=O)c1CN)Cc1cc3ccccc3nc1-2 valuemeasured=8
compoundstring=Cc1cc2n(c(=O)c1C(N)=O)Cc1cc3ccccc3nc1-2 valuemeasured=0
compoundstring=Cc1cc2n(c(=O)c1CN)Cc1cc3ccc(OCCN4CCCCC4)cc3nc1-2 valuemeasured=11
compoundstring=Cc1cc2n(c(=O)c1C(N)=O)Cc1cc3cc(OCCN4CCCCC4)ccc3nc1-2 valuemeasured=9
